Assignment: determine reported Kd for the given binders.
Molecular target: T1, human Mdm2 1-125 (human)
T1 construct: Mdm2, human, residues 1-125; the stretch after the TEV site ENLYFQG of the fusion protein; source: E. coli BL21 (DE3) Rosetta T1R, purified (Ni-NTA, gel filtration)
T1 sequence (chain, as listed by the source): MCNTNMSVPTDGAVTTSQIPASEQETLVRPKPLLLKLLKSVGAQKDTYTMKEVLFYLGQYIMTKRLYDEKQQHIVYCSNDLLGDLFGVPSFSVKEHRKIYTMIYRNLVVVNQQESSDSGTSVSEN
Test: fluorescence polarisation; competitive fluorescence anisotropy: unlabelled peptide titrated against 250 nM Mdm2 (1-125) with 50 nM FAM-labelled 12/1 peptide (FAM-…-NH2); PBS pH 7.4, 0.001% Tween-20; apparent Kd, geometric means
Settings: both partners purified
Positions of bridges follow the written chain, without caps; N, C: chain ends. Non-standard residues stand in square brackets, D forms with d. Primed or numbered codes have the meaning given here. Lys(N3) = [N-]=[N+]=NCCCC[C@H](N)C(=O)O; R8 = C=CCCCCCC[C@@](C)(N)C(=O)O; S5 = C=CCCC[C@](C)(N)C(=O)O; Cba′ = not defined here; Aib = CC(C)(N)C(=O)O; βAla = NCCC(=O)O
One number for each entry, in nM.

binder: Ac-[Lys(N3)][βAla]LTF[R8]EYWAQ[Cba′][S5]S[Aib]A-NH2 (staple 6-13; reading uncertain) [AZIDE-ATSP-7041 (A13 TO AIB)]
unit-info: nM
value: 15.2
//
binder: Ac-[Lys(N3)][βAla]HTF[R8]EYWAQ[Cba′][S5]SAA-NH2 (staple 6-13; reading uncertain) [AZIDE-ATSP-7041 (L1H)]
unit-info: nM
value: 0.7

For each entry beneath this line, provide reported Kd.
1. Ac-[Lys(N3)][βAla]LTF[R8]EYWAQE[S5]SAA-NH2 (staple 6-13) [AZIDE-ATSP-7041 (CBA10E)]
2. Ac-[Lys(N3)][βAla]LTF[R8]EYWEQ[Cba′][S5]SAA-NH2 (staple 6-13; reading uncertain) [AZIDE-ATSP-7041 (A8E)]
3. Ac-[Lys(N3)][βAla]LTF[R8]EYWAH[Cba′][S5]SAA-NH2 (staple 6-13; reading uncertain) [AZIDE-ATSP-7041 (Q9H)]
4. Ac-[Lys(N3)][βAla]LHF[R8]EYWAQ[Cba′][S5]SAA-NH2 (staple 6-13; reading uncertain) [AZIDE-ATSP-7041 (T2H)]
5. Ac-[Lys(N3)][βAla]LTF[R8]EYWAQ[Cba′][S5]HAA-NH2 (staple 6-13; reading uncertain) [AZIDE-ATSP-7041 (S12H)]
6. Ac-[Lys(N3)][βAla]LTF[R8]HYWAQ[Cba′][S5]SAA-NH2 (staple 6-13; reading uncertain) [AZIDE-ATSP-7041 (E5H)]
7. Ac-[Lys(N3)][βAla]LTE[R8]EYWAQ[Cba′][S5]SAA-NH2 (staple 6-13; reading uncertain) [AZIDE-ATSP-7041 (F3E)]
8. Ac-[Lys(N3)][βAla]LEF[R8]EYWAQ[Cba′][S5]SAA-NH2 (staple 6-13; reading uncertain) [AZIDE-ATSP-7041 (T2E)]

312
3.2
9.6
64.2
4.5
21.1
11200
42.4
